- Test Name: Acute toxicity (LD50, Weil method), e.p. administration in mouse
- Measurement Setup: in vivo, ip, Weil method N = 4 K = 4
Lab note: cut-off is 2000 mg/kg. Strictly less in LD50 is 1.0. Exactly 2000 mg/kg or more is 0.0.

Please review the following examples before continuing.
CCCOC(=O)c1ccccc1OC(=O)CNC(=O)C(C)SC(=O)c1cccs1 (stereo not drawn): 0.0
COC(=O)c1ccccc1OC(=O)CNC(=O)C(C)SC(=O)c1cccs1 (stereo not drawn): 1.0
CCOC(=O)c1ccccc1OC(=O)CNC(=O)C(C)SC(=O)c1cccs1 (stereo not drawn): 0.0
CCCOC(=O)c1ccc(OC(=O)CNC(=O)C(C)SC(=O)c2cccs2)cc1 (stereo not drawn): 1.0
CCCCOC(=O)c1ccccc1OC(=O)CNC(=O)C(C)SC(=O)c1cccs1 (stereo not drawn): 1.0

// next entry
Input: Please let me know if CC(=O)Nc1ccc(OC(=O)CNC(=O)C(C)SC(=O)c2cccs2)cc1 (stereo not drawn) shows LD50 below 2000 mg/kg.
Output: 1.0
